# Test system: Fibroblast
# Experiment Description: Incucyte cell viability with human fibroblast; further: unitless GR value; below 1 slowed growth and below 0 cell loss
# Format: toxicity, cell-based
# Experimental Conditions: 6 h, 10 µM, compound concentration 10 uM, replicate number 1
Readout Kind: Growth Rate
Response field accepts a number only; no unit should be typed.

Documented Growth Rate of O=C(O)CCCc1cc2cc(Cl)ccc2n1S(=O)(=O)c1ccc2ncsc2c1 [LANIFIBRANOR] : 0.58

response.value for CC[C@@H](C(=O)OC)n1c(=O)c2ccccc2n(Cc2cn(C)c3cccc(C)c23)c1=O (field: Growth Rate) = 0.75

Field Growth Rate (entry C[C@@H]1COCCN1c1cc(=O)n2c(n1)N(Cc1cncc(Cl)c1)[C@H](C(F)(F)F)CC2 ) reads 0.36

The recorded Growth Rate for C/C(=C\C(=O)Nc1ccccc1C(=O)[O-])c1ccc2ccccc2c1.[Na+] is 0.57

// sample O=C(CCCN1CCC(O)(c2ccc(Cl)cc2)CC1)c1ccc(F)cc1 [HALOPERIDOL] , its Growth Rate was 0.04

Entry under test: O=C(NC1CCNCC1)c1n[nH]cc1NC(=O)c1c(Cl)cccc1Cl [AT-7519] . Its Growth Rate was 0.78

Query CNc1nc(-c2cc(C(=O)N3CCN(Cc4ccc(Cl)cc4)CC3)c(Cl)cn2)cs1 yields Growth Rate of -0.5

The reported value for CN(C)CCCNc1ccnc(Nc2cccc(Cl)c2)n1 in terms of Growth Rate is 0.3

For reference, reported Growth Rate for CN(C1CCc2c(c3ccccc3n2CC(=O)O)C1)S(=O)(=O)c1ccc(F)cc1 (stereo not drawn) stands at 0.47

CCC(C)(C)NC(=NC#N)Nc1cccnc1 has a reported Growth Rate of -1

Input CC(C)(C)c1cnc(CSc2cnc(NC(=O)C3CCN(CC(=O)NCCOCCOCCOCCNc4cccc5c4C(=O)N(C4CCC(=O)NC4=O)C5=O)CC3)s2)o1 (stereo not drawn) . Output Growth Rate: 0.1

Note to self: Growth Rate recorded for CC(C)NC(=O)[C@H]1CCC[C@H]1Nc1nc(Nc2ccc(CN(C)C)cc2)ncc1Br.Cl was -0.53

Kindly note the recorded Growth Rate for N=C(N)NCCC[C@@H](NC(=O)C(c1ccccc1)c1ccccc1)C(=O)NCc1ccc(CNC(N)=O)cc1.O=C(O)C(F)(F)F , which is 0.82

Short answer for Cc1nc2c([nH]1)c(=O)n(C)c(=O)n2Cc1ccco1 [FURAFYLLINE] : Growth Rate was 0.42

Given item Cc1ccc(CNc2ncnc3ccc(-c4ccc(CO)o4)cc23)o1 , the value recorded as its Growth Rate is -1

Noted for CN1[C@@H](CC(=O)c2ccccc2)CCC[C@H]1C[C@H](O)c1ccccc1.Cl [LOBELINE HYDROCHLORIDE] : its Growth Rate reads 0.48

Field Growth Rate (entry CC(C)Oc1ccc(-c2cnc3c(-c4ccnc5ccccc45)cnn3c2)cc1 ) reads 0.72

Lab book: Growth Rate of COc1cc(N2CCC(N3CCN(C)CC3)CC2)ccc1Nc1ncc(Cl)c(Nc2ccccc2S(=O)(=O)C(C)C)n1 [TAE-684] noted as 0.37
